system: HCT/VP35; assay: In vitro cytotoxicity, VP16 resistant HCT/VP35 human colon carcinoma; format: cell-based; settings: IC50 divided by IC50 for HCT116
quantity measured: ratio of IC50 values HCT/VP35 vs HCT116
Numbers only.

Known results for compounds:
compound: COc1ccc([Se](=O)(=O)CCCl)cc1
quantity measured: ratio of IC50 values HCT/VP35 vs HCT116
experimental result: 0.6

compound: COc1cc([C@@H]2c3cc4c(cc3[C@@H](O[C@@H]3O[C@@H]5CO[C@@H](c6cccs6)O[C@H]5[C@H](O)[C@H]3O)[C@H]3COC(=O)[C@H]23)OCO4)cc(OC)c1O [VM-26 (Teniposide), Teniposide]
quantity measured: ratio of IC50 values HCT/VP35 vs HCT116
experimental result: 15.1

compound: O=[Se](=O)(CCCl)c1ccccc1
quantity measured: ratio of IC50 values HCT/VP35 vs HCT116
experimental result: 0.8

Now for a further compound.
QUERY: I would be grateful if you could share the reported ratio of IC50 values HCT/VP35 vs HCT116 for COc1cc([C@@H]2c3cc4c(cc3[C@@H](O[C@@H]3O[C@@H]5CO[C@@H](C)O[C@H]5[C@H](O)[C@H]3O)[C@H]3COC(=O)[C@H]23)OCO4)cc(OC)c1O [VP-16 (Etoposide), Etoposide] .
RESULT: 10.0
